Attribution: the supplement of paper PMC11208160

- Protocol Summary: recombinant barcode read abundance after kanamycin selection (control-corrected) (log10(CPM+1)); higher = more efficient recombination; sequences stand for … in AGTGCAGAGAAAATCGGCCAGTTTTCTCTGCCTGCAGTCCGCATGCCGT…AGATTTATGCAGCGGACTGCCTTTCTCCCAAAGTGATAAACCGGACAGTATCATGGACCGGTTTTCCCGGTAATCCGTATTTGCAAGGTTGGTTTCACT; site = the 11-nt target;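 also: IS621 recombinase and bridge RNA in Escherichia coli cells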
Please enter t where recombinant barcode read abundance (log10) is greater than or equal to 0.09, and f where it is lower.

[[record]]
sequence_content = "GAGGGCCCTTGGGTTCTAACCTGTTGCGG (site GAGGGCCCTCC)"
discrete_label = "t"

[[record]]
sequence_content = "CGCCGAACTTGGGTTCTAACCTGTTGCCT (site GGCCGAACTAG)"
discrete_label = "t"

[[record]]
sequence_content = "TGGCACCCTTGGGTTCTAACCTGTTGCGG (site TGGAACCCTCC)"
discrete_label = "t"

[[record]]
sequence_content = "AAAGGTTCTTGGGTTCTAACCTGTTGCCT (site ATAGGTTCTAG)"
discrete_label = "t"

[[record]]
sequence_content = "TGATTTCCTTGGGTTCTAACCTGTTGCCT (site AGATTGCCTAG)"
discrete_label = "f"

[[record]]
sequence_content = "TCTAGACCTTGGGTTCTAACCTGTTGCCT (site TCTAGATCTAG)"
discrete_label = "f"

[[record]]
sequence_content = "CACAACACTTGGGTTCTAACCTGTTGCCT (site CACAACACTAG)"
discrete_label = "t"

[[record]]
sequence_content = "CGTAGGGCTTGGGTTCTAACCTGTTGCCG (site CGTAGGGCTCG)"
discrete_label = "t"

[[record]]
sequence_content = "CTAAGTGCTTGGGTTCTAACCTGTTGCCA (site CTAAGAGCTTG)"
discrete_label = "f"

[[record]]
sequence_content = "CTATGTGCTTGGGTTCTAACCTGTTGCAT (site CTATGTGCTAG)"
discrete_label = "f"

[[record]]
sequence_content = "ATAAGTCCTTGGGTTCTAACCTGTTGCGA (site ATAAGTCCTTC)"
discrete_label = "t"

[[record]]
sequence_content = "AGGAAGACTTGGGTTCTAACCTGTTGCCG (site AGGAAGACTCG)"
discrete_label = "t"

[[record]]
sequence_content = "GACACAGCTTGGGTTCTAACCTGTTGCCT (site GACACAGCTAG)"
discrete_label = "t"

[[record]]
sequence_content = "TGTCGATCTTGGGTTCTAACCTGTTGCCT (site TGTCGATCTAG)"
discrete_label = "t"

[[record]]
sequence_content = "GCTTCGGCTTGGGTTCTAACCTGTTGCCT (site GCTTCGGCTAG)"
discrete_label = "t"

[[record]]
sequence_content = "AGGATTCCTTGGGTTCTAACCTGTTGCCT (site AGGATTCCTAG)"
discrete_label = "t"

[[record]]
sequence_content = "ATCCATCCTTGGGTTCTAACCTGTTGCCT (site ATCCAGCCTAG)"
discrete_label = "f"

[[record]]
sequence_content = "GCCTGCCCTTGGGTTCTAACCTGTTGCCT (site GTCTGCCCTAG)"
discrete_label = "f"

[[record]]
sequence_content = "GCCGAGTCTTGGGTTCTAACCTGTTGCCT (site GCCGAGTCTGT)"
discrete_label = "t"

[[record]]
sequence_content = "TGAGTCTCTTGGGTTCTAACCTGTTGCCA (site TGAGTCTCTTG)"
discrete_label = "t"

[[record]]
sequence_content = "GTCCCTCCTTGGGTTCTAACCTGTTGCTT (site GTCCCTCCTAA)"
discrete_label = "t"

[[record]]
sequence_content = "TACTAAGCTTGGGTTCTAACCTGTTGCGT (site TACTAAGCTAT)"
discrete_label = "t"

[[record]]
sequence_content = "TCACTTGCTTGGGTTCTAACCTGTTGCCT (site TCACATGCTAG)"
discrete_label = "f"

